The origin of these recorded values is paper PMC6277375.

Target: murine NPSR (Mus musculus, UniProt Q8BZP8)
Construct: expressed in transfected cells
Sequence (Q8BZP8 whole entry, the tested form may be a part): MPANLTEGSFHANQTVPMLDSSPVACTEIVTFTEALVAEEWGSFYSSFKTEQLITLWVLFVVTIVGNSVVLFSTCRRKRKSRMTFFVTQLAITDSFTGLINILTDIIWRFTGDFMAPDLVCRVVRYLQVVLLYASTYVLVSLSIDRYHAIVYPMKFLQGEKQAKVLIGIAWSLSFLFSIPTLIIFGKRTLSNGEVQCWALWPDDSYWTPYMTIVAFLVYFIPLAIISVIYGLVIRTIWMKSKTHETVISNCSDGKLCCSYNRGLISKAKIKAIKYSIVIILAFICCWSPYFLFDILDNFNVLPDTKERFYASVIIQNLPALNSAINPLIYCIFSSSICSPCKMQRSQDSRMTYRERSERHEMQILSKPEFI
Experiment: Dynamic mass redistribution (DMR) assay in HEK293mNPSR cells
Format: cell-based
Conditions: ligand 10 μmol L^−1, 37°C, peak at 60 minute, mean ± SEM, duplicate, SEM
Marks after values point to notes of the source that are not given here. Ends that are not written are not given here.
reported metric: DMR response, HEK293mNPSR pm ± SEM

INSERT INTO assay_data (substance, assay_result) VALUES
  ('SFRNGVATGMKKTSFQRAKS [[Ala^7]NPS]', '692 ± 15 ^a pm'),
  ('FRNGVGTGMKKTSFQRAKS [NPS(2‐20)]', '782 ± 46 ^a pm'),
  ('SFRNGVGTGM [NPS(1‐10)]', '683 ± 90 ^a pm'),
  ('NPS(1‐6): NPS fragment (SFRNGV; Neuropeptide S; UniProt P0C0P6 70-75, looked up, fragment)', '356 ± 48 ^a pm');

Continue with the substance presented below.
Asked: Lab request: please report DMR response, HEK293mNPSR pm ± SEM under test system murine NPSR (Mus musculus, UniProt Q8BZP8) for NPS(3‐20): NPS fragment (RNGVGTGMKKTSFQRAKS; Neuropeptide S; UniProt P0C0P6 72-89, looked up, fragment)
Given back: 675 ± 54 ^a pm
